molecular target: Melatonin receptor (Gallus gallus, UniProt P49288+P51050+P49285); assay: Binding affinity towards melatonin receptor in chicken brain.
Each entry below carries its reported Ki.
PARAMETER: Ki

CCC(=O)NCCCc1cccc(Br)c1 = 318 nM
CC(=O)NCCCc1cccc(Br)c1 = 852 nM
CCCC(=O)NCCCCc1cccc(OC)c1 = 208 nM
CCC(=O)NCCc1ccccc1OC = 135 nM
COc1ccccc1CCNC(C)=O = 573 nM
CCCC(=O)NCCCCc1ccc(OC)cc1 = 822 nM
CCCC(=O)NCCCc1cccc(OC)c1 = 5.5 nM
CC(=O)NCCCc1cccc(Cl)c1 = 636 nM
COc1cccc(CNC(C)=O)c1 = 57000 nM
CCC(=O)NCc1cccc(OC)c1 = 22000 nM
CCCC(=O)NCCCc1cccc(Br)c1 = 354 nM
CCCC(=O)NCc1cccc(OC)c1 = 13000 nM
CCC(=O)NCCCc1cccc(OC)c1 = 5.6 nM
CCCC(=O)NCCCc1cccc(F)c1 = 434 nM
CCCCC(=O)NCCc1cccc(OC)c1 = 741 nM
CCC(=O)NCCCCc1cccc(OC)c1 = 119 nM
CCCC(=O)NCCc1cccc(OC)c1 = 40 nM
CCCCC(=O)NCCCc1ccccc1OC = > 100000 nM
CCCC(=O)NCCCc1cccc(Cl)c1 = 113 nM
CCCCC(=O)NCCCCc1ccc(OC)cc1 = 7000 nM
CCC(=O)NCCCc1ccc(OC)cc1 = 2900 nM
CCCCC(=O)NCCCCc1ccccc1OC = 9190 nM
COc1ccc(CCCNC(C)=O)cc1 = 14000 nM
CCC(=O)NCCCc1cccc(F)c1 = 740 nM
CCCCC(=O)NCCc1ccccc1OC = 16000 nM
COc1cccc(CCCNC(C)=O)c1 = 63 nM
COc1ccccc1CCCNC(C)=O = 1430 nM
CCC(=O)NCCc1ccc(OC)cc1 = 19200 nM
COc1ccc(CCNC(C)=O)cc1OC = 870 nM
CC(=O)NCCCc1cccc(F)c1 = 1920 nM
CCCC(=O)NCCc1ccccc1OC = 69 nM
CCCC(=O)NCCc1ccc(OC)cc1 = 17900 nM
CCCC(=O)NCCCc1ccc(OC)cc1 = 860 nM
CCC(=O)NCCCc1ccccc1OC = 374 nM
CCCCC(=O)NCCCc1cccc(Cl)c1 = 15100 nM
CCCCC(=O)NCCCCc1cccc(OC)c1 = 9670 nM
CCC(=O)NCCc1c[nH]c2ccc(OC)cc12 = 0.19 nM
COc1ccc(CCCCNC(C)=O)cc1 = 7300 nM
COc1ccc2c(c1)c1c(n2C)CCCC1CNC(C)=O (stereo not drawn) = 0.97 nM
COc1ccc(Br)cc1CCN = 8 nM
CCC(=O)NCCCCc1ccc(OC)cc1 = 1400 nM
CCCC(=O)NCCCc1ccccc1OC = 442 nM
CCC(=O)NCCc1ccc(OC)c(OC)c1 = 130 nM
CCCC(=O)NCCCCc1ccccc1OC = 116 nM
CCC(=O)NCCc1cccc(OC)c1 = 62 nM
CCCC(=O)NCCc1ccc(OC)c(OC)c1 = 59 nM
CCCCC(=O)NCCc1ccc(OC)cc1 = 70800 nM
CCC(=O)NCCCCc1ccccc1OC = 339 nM
